- Tested on: W256
- assay.protocol: Antitumour activity against Walker 256 adenocarcinoma cells implanted in Wistar rat assessed as increase in animal survival rate by measuring T/C ratio at 5 mg/kg, ip qd for 3 days administered on day 3,4,5 after tumor cell transplantation
- Format: functional
- test.conditions: time 3 day

smiles.record | tested.target | measurement.unit | T/C
Cc1ccc([N+](=O)[O-])c2c(NCCCN(C)CCCNc3ccc([N+](=O)[O-])c4[nH]c5ccccc5c(=O)c34)c3ccccc3nc12 | W256 | % | 1000
Cc1ccc([N+](=O)[O-])c2c(NCCNc3ccc(C)c4[nH]c5ccccc5c(=O)c34)c3ccccc3nc12 | W256 | % | 750
Cc1ccc([N+](=O)[O-])c2c(NCCCNCCNCCCNc3ccc([N+](=O)[O-])c4[nH]c5ccccc5c(=O)c34)c3ccccc3nc12 | W256 | % | 350
Cc1ccc([N+](=O)[O-])c2c(NCCCN(C)CCCNc3ccc(C)c4[nH]c5ccccc5c(=O)c34)c3ccccc3nc12 | W256 | % | 1300
Cc1ccc([N+](=O)[O-])c2c(NCCCNCCCNc3ccc(C)c4[nH]c5ccccc5c(=O)c34)c3ccccc3nc12 | W256 | % | 1300

src = ChEMBL document CHEMBL4765407
